PROTOCOL SUMMARY: HILIC, Merck SeQuant ZIC-HILIC, 100 × 2.1 mm, 3.5 µm, 25 °C, 0.3 mL/min, estimated dead time 0.73 min; A: water + 0.1% formic acid, pH 3; B: acetonitrile + 0.1% formic acid, pH 3; gradient (min/%B) 0/95 1.5/95 13.5/40 15.5/40 29.7/25 33.5/25 34.5/95 41.5/95
TEST SETTINGS: stereoisomer not certain
Please enter 1.0 where LC retention time is greater than or equal to 7 min, and 0.0 where it is lower.

CC(CCC(=O)NCCS(=O)(=O)O)C1CCC2C3C(O)CC4CC(O)CCC4(C)C3CC(O)C12C (configuration not stated)	0.0
CC(=O)NC(CCC(=O)O)C(=O)O (configuration not stated) [N-acetylglutamate]	0.0
CN(CC(=O)O)C(N)=NP(=O)(O)O	1.0
O=C(O)CNC(=O)c1ccccc1O [o-Hydroxyhippuric acid]	0.0
NCC(=O)NCC(=O)O	1.0

Please find the next compound below.
Query string: Could you tell me if the measured LC retention time of `C[n+]1cccc(C(=O)[O-])c1` reaches 7 min or more?
Result string: 1.0
